Item-by-item account of EC50
# tested_system: recombinant human ER-α (Homo sapiens)
# Construct: purchased Invitrogen (Carlsbad, Calif.)
# test_summary: Binding affinity for recombinant human ER-α (fluorescence polarization, ES2 displacement)
# applied_conditions: Table 1; determined only for compounds with >90% competition

1. Oc1ccc(C(=C(Cn2ccnc2)c2ccccc2)c2ccc(O)cc2)cc1
27.3 nM
2. Nc1ccc(C(Cn2ccnc2)=C(c2ccc(O)cc2)c2ccc(O)cc2)cc1
1830 nM
3. Oc1ccc(C(Cn2ccnc2)=C(c2ccc(O)cc2)c2ccc(O)cc2)cc1 [Compound 18a]
97.8 nM
4. Oc1ccc(C(Cn2cnnc2)=C(c2ccc(O)cc2)c2ccc(O)cc2)cc1 [Compound 20a]
943 nM

Now examine the next entry.
Exam item: Data request, read-out EC50, for Oc1ccc(C(=C(Cn2ccnc2)c2ccc(O)c(F)c2)c2ccc(O)cc2)cc1 [Compound 18b]
Marked response: 85.2 nM

---

measurement_kind: melting point

1. N#CCC(=C(c1ccc(O)cc1)c1ccc(O)cc1)c1ccccc1
198 to 200 °C
2. Oc1ccc(C(=C(Cn2cncn2)c2ccccc2)c2ccc(O)cc2)cc1
143 to 145 °C
3. N#CCC(=C(c1ccc(O)cc1)c1ccc(O)cc1)c1ccc(O)c(F)c1 [Compound 17b]
180 to 183 °C
4. Oc1ccc(C(=C(Cn2ccnc2)c2ccccc2)c2ccc(O)cc2)cc1
225 to 227 °C

Kindly consider the entry below.
Exam item: Query: melting point; subject: N#CCC(=C(c1ccc(O)cc1)c1ccc(O)cc1)c1ccc(N)cc1
Marked response: 235 to 238 °C

---

# tested_system: recombinant human ER-α (Homo sapiens)
# Construct: purchased Invitrogen (Carlsbad, Calif.)
# test_summary: Binding affinity for recombinant human ER-α (fluorescence polarization, ES2 displacement)
# applied_conditions: Table 1; at 100 μM compound
measurement_kind: ER-α percent competition (% competition)
Number in % competition, nothing else.

Field: example entries. Status: answers known.
1. Oc1ccc(C(=C(Cn2cnnc2)c2ccc(O)c(F)c2)c2ccc(O)cc2)cc1 [Compound 20b]
0
2. N#CCC(=C(c1ccc(O)cc1)c1ccc(O)cc1)c1ccc(O)cc1 [Compound 17a]
0
3. Oc1ccc(C(=C(Cn2cncn2)c2ccccc2)c2ccc(O)cc2)cc1
12
4. N#CCC(=C(c1ccc(O)cc1)c1ccc(O)cc1)c1ccccc1
56

Please look at the following molecule next.
Exam item: Can you share its ER-α percent competition? I mean this molecule: Nc1ccc(C(Cn2cnnc2)=C(c2ccc(O)cc2)c2ccc(O)cc2)cc1
Marked response: 13

---

# EC50 annotations
# tested_system: recombinant human ER-α (Homo sapiens)
# Construct: purchased Invitrogen (Carlsbad, Calif.)
# Sequence (P03372 1-595): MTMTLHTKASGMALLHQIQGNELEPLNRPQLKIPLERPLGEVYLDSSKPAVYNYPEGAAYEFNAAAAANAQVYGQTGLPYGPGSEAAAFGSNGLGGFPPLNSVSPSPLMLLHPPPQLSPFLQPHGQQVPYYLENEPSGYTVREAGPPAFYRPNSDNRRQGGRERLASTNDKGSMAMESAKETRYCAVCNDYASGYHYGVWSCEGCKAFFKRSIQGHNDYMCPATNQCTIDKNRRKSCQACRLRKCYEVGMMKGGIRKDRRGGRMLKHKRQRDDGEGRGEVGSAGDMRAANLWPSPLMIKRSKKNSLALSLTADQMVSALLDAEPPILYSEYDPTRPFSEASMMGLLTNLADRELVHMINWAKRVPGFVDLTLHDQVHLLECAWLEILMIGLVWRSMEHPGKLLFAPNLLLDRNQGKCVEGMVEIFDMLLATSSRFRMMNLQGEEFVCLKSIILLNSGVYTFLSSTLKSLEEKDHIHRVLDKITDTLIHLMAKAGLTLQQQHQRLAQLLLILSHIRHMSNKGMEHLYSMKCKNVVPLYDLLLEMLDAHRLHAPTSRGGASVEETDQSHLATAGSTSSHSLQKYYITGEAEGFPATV
# test_summary: Binding affinity for recombinant human ER-α (fluorescence polarization, ES2 displacement)
# applied_conditions: Table 2
Answer in nM, number only, no unit symbol.

Study these solved cases before continuing.
1) CCC(=C(c1ccc(O)cc1)c1ccc(O)cc1)c1ccc(N)cc1 [Compound 38b]
1710
2) CCC(=C(c1ccc(N)cc1)c1ccc(N)cc1)c1ccc([N+](=O)[O-])cc1 [Compound 37d]
72.1
3) CC(=C(c1ccc(N)cc1)c1ccc(N)cc1)c1ccc([N+](=O)[O-])cc1 [Compound 37c]
213

Exam item: Could you share which EC50 value was measured for CC(=C(c1ccc(O)cc1)c1ccc(O)cc1)c1ccc(N)cc1 [Compound 38a] ?
Marked response: 11000

---

# tested_system: recombinant human ER-α (Homo sapiens, UniProt P03372)
# Construct: purchased Invitrogen (Carlsbad, Calif.)
# test_summary: Binding affinity for recombinant human ER-α (fluorescence polarization, ES2 displacement)
# applied_conditions: Table 1; at 100 μM compound
Listed below: ER-α percent competition values for each entry.
Value expressed in % competition; do not type the unit.

Please review the entries below; each comes with its answer.
1) Oc1ccc(C(=C(Cn2ccnc2)c2cccc(O)c2)c2ccc(O)cc2)cc1 [Compound 32]
0
2) Oc1ccc(C(Cn2cncn2)=C(c2ccc(O)cc2)c2ccc(O)cc2)cc1 [Compound 19a]
45
3) Nc1ccc(C(Cn2cncn2)=C(c2ccc(O)cc2)c2ccc(O)cc2)cc1 [Compound 27]
0
4) N#CCC(=C(c1ccc(O)cc1)c1ccc(O)cc1)c1ccc(O)c(F)c1 [Compound 17b]
0
5) Nc1cccc(C(Cn2ccnc2)=C(c2ccc(O)cc2)c2ccc(O)cc2)c1 [Compound 35]
60
6) N#CCC(=C(c1ccc(O)cc1)c1ccc(O)cc1)c1ccc(N)cc1 [Compound 25]
0

Let us move to another entry and its ER-α percent competition.
Exam item: Find the recorded ER-α percent competition belonging to Oc1ccc(C(=C(Cn2cncn2)c2ccc(O)c(F)c2)c2ccc(O)cc2)cc1 [Compound 19b] and report it.
Marked response: 2

---

Item-by-item account of ER-α percent competition
# tested_system: recombinant human ER-α (Homo sapiens, UniProt P03372)
# Construct: purchased Invitrogen (Carlsbad, Calif.)
# test_summary: Binding affinity for recombinant human ER-α (fluorescence polarization, ES2 displacement)
# applied_conditions: Table 2; at 100000 nM compound
Please give a number only; it is taken to be in % competition.

Exam item: Given the entry CC(=C(c1ccc(N)cc1)c1ccc(N)cc1)c1ccc(N)cc1 [Compound 38c] , report its measured ER-α percent competition.
Marked response: 31

Exam item: Bench note: what ER-α percent competition did CCC(=C(c1ccc(O)cc1)c1ccc(O)cc1)c1ccc([N+](=O)[O-])cc1 [Compound 37b] show?
Marked response: 40

Exam item: For the compound CCC(=C(c1ccc(O)cc1)c1ccc(O)cc1)c1ccccc1 [Compound 7, reference compound] , what ER-α percent competition is on record?
Marked response: 80

Exam item: # input compound: CC(=C(c1ccc(O)cc1)c1ccc(O)cc1)c1ccc([N+](=O)[O-])cc1 [Compound 37a] ; wanted: its ER-α percent competition
Marked response: 19

Exam item: For the compound CCC(=C(c1ccc(N)cc1)c1ccc(N)cc1)c1ccc(N)cc1 [Compound 38d] , what ER-α percent competition is on record?
Marked response: 25

---

# tested_system: recombinant human ER-β (Homo sapiens)
# Construct: purchased Invitrogen (Carlsbad, Calif.)
# Sequence (Q92731 whole entry): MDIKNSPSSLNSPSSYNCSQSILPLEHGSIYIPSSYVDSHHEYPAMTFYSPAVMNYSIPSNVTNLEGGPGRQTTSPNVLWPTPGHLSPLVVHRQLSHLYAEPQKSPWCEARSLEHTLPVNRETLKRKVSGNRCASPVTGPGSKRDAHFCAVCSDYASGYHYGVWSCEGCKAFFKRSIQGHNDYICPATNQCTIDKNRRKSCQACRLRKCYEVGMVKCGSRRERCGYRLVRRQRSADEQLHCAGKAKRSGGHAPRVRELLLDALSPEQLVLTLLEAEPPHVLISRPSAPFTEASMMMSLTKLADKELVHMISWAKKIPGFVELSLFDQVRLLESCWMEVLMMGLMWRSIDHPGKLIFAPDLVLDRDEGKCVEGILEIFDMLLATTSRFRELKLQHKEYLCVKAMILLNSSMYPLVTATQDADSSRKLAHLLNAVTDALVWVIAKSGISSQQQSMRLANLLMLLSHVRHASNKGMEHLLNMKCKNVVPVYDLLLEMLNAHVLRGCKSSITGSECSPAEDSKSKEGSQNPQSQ
# test_summary: Binding affinity for recombinant human ER-β (fluorescence polarization, ES2 displacement)
# applied_conditions: Table 2
# pEC50 annotations
Hey, just a heads up that pEC50 is the negative log base 10 of the concentration in molar.

Worked cases, answers included:
1) CC(=C(c1ccc(O)cc1)c1ccc(O)cc1)c1ccc(N)cc1 [Compound 38a]
6.07
2) CC(=C(c1ccc(N)cc1)c1ccc(N)cc1)c1ccc([N+](=O)[O-])cc1 [Compound 37c]
6.31
3) CCC(=C(c1ccc(N)cc1)c1ccc(N)cc1)c1ccc([N+](=O)[O-])cc1 [Compound 37d]
7.15

Attention now turns to another entry.
Exam item: Tell me the measured pEC50 of CCC(=C(c1ccc(O)cc1)c1ccc(O)cc1)c1ccc(N)cc1 [Compound 38b] , please.
Marked response: 5.90

---

# tested_system: recombinant human aromatase (CYP19) (Homo sapiens, UniProt P11511)
# Construct: purchased BD Biosciences (San Jose, Calif.)
# Sequence (P11511 1-503): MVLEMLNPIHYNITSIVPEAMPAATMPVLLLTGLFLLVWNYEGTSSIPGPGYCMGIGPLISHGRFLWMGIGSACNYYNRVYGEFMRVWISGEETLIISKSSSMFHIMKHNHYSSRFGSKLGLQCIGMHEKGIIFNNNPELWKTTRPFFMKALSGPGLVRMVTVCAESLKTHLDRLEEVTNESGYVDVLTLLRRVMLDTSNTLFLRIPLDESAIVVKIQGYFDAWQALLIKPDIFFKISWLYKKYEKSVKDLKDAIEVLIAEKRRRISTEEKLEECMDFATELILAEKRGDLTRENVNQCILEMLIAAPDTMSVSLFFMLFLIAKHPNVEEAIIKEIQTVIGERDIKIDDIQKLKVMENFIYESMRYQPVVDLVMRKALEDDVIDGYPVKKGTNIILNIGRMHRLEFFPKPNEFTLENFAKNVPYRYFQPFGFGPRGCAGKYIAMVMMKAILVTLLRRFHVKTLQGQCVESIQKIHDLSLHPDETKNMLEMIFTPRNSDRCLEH
# test_summary: Inhibition of recombinant human aromatase (CYP19) by microsomal incubations (MFC fluorometric substrate)
# Assay type: biochemical
# applied_conditions: Table 2; determined for compounds with inhibition higher than 90%
Values of IC50 strictly less than 60 nM map to yes (1), and values of at least 60 nM map to no (0).

These solved cases illustrate the format of a correct answer.
1) CCC(=C(c1ccc(N)cc1)c1ccc(N)cc1)c1ccc(N)cc1 [Compound 38d]
yes (1)
2) CC(=C(c1ccc(N)cc1)c1ccc(N)cc1)c1ccc(N)cc1 [Compound 38c]
no (0)
3) CCC(=C(c1ccc(N)cc1)c1ccc(N)cc1)c1ccc([N+](=O)[O-])cc1 [Compound 37d]
no (0)
4) CCC(=C(c1ccc(O)cc1)c1ccc(O)cc1)c1ccccc1 [Compound 7, reference compound]
no (0)

Exam item: # strict comparison: is reported IC50 < 60 nM? input = CC(=C(c1ccc(N)cc1)c1ccc(N)cc1)c1ccc([N+](=O)[O-])cc1 [Compound 37c]
Marked response: no (0)

Exam item: Identify whether the compound CC(=C(c1ccc(O)cc1)c1ccc(O)cc1)c1ccc(N)cc1 [Compound 38a] records IC50 below 60 nM.
Marked response: no (0)

Exam item: Below 60 nM on IC50? Entry CCC(=C(c1ccc(O)cc1)c1ccc(O)cc1)c1ccc(N)cc1 [Compound 38b]
Marked response: yes (1)
